This listing pairs sequences with measured Screen.
- System: EPHB1 kinase domain
- Protocol Description: pTyr-Var library bacterial peptide display kinase screen (enrichment scores);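 also: log2 fold change in enrichment of variant over reference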
- Format: biochemical, human
- Stated Conditions: sheet EPHB1; effect of the variant peptide relative to its reference peptide in the pTyr-Var library screen (enrichment scores)
Number, no unit, nothing else.

Query: Query (sequence): LDVGEYCVPRG [BEX1_Y43_A40V] ; field requested: Screen
Result: -0.3957

Query: Could you tell me which Screen is on file for QTPVLYAMLFH [MPZ_Y220_D224Y_YF] ?
Result: -0.7178

Query: Would you kindly share the measured Screen for PSAELYSFALP [PDGFRB_Y716_N718Y_YF] ?
Result: 2.14

---

- Test System: c-Src kinase domain (Homo sapiens)
- Protocol Description: pTyr-Var library bacterial peptide display kinase screen (enrichment scores);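 also: log2 fold change in enrichment of variant over reference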
- Type: biochemical
- Stated Conditions: sheet "Src"; variant peptide versus its reference peptide in the pTyr-Var library screen
Screen values, listed per item
Lab note: record just the number, no unit beside it.

Reference set (3 entries):
1. PLDGEYFILQI [TP53_Y327_T329I]	-0.4119
2. PLDGEYFTLPI [TP53_Y327_Q331P]	1.231
3. LPHVIYCRLWC [SMAD2_Y128_R133C]	1.251

Please turn your attention to the following entry.
Query: Which Screen is listed for Ac-SGDINYGQFAQ-NH2 [PLCG1_Y210_T209N, pTyr-Var library variant phosphosite peptide] ?
Result: -3.177
